Entry source: patent US20040024024A1

Quick reference for log10 of IC50 among some compounds
Molecular target: Human recombinant MMP-13 (Homo sapiens, UniProt P45452)
Construct: made in house; host or cells: baculovirus / insect cells
Assay: In vitro MMP inhibition, IC50 determination (fluorogenic substrate I)
Assay type: biochemical
Conditions: value outside parentheses
Protocol: Several hydroxamates and salts thereof were analyzed in in vitro assays to determine their ability to inhibit the MMP cleavage of peptide substrates. Inhibition (Ki) and IC50 constants were calculated from the assayed hydroxamate-MMP interactions. […] The assays from which the IC50 determinations were made were performed as follows. […] The assayed hydroxamate samples were, incubated in Microfluorrm White Plates (Dynatech, Chantilly, VA) and analyzed on a Perkin Elmer L550 plate reader (Norwalk, Conn.). […]
assay_readout: log10 of IC50 (log10 of the value in nM)

> print(dat)
                         structure.as.smiles                             target.entity  measured.value
 1  O=C(NO)C1(S(=O)(=O)c2ccc(OCCCc3cccc(-c4cc5ccccc5s4)c3)cc2)CCOCC1  Human recombinant MMP-13 (Homo sapiens, UniProt P45452)            2.07
 2  CN(C)C(=O)c1cccc(OCCOc2ccc(S(=O)(=O)C3(C(=O)NO)CCOCC3)cc2)c1  Human recombinant MMP-13 (Homo sapiens, UniProt P45452)            1.24
 3  O=C(NO)C1(S(=O)(=O)c2ccc(OCCCc3cccc(-c4ccc5ccccc5c4)c3)cc2)CCOCC1  Human recombinant MMP-13 (Homo sapiens, UniProt P45452)            1.90
 4  O=C(NO)C1(S(=O)(=O)c2ccc(OCCn3nnc4ccccc4c3=O)cc2)CCOCC1  Human recombinant MMP-13 (Homo sapiens, UniProt P45452)            1.68
 5  O=C(NO)C1(S(=O)(=O)c2ccc(OCCCc3cc(-c4ccc(F)cc4F)cs3)cc2)CCOCC1  Human recombinant MMP-13 (Homo sapiens, UniProt P45452)           -1.00
 6  O=C(COc1ccc(S(=O)(=O)C2(C(=O)NO)CCOCC2)cc1)c1cccc(-c2ccccc2)c1  Human recombinant MMP-13 (Homo sapiens, UniProt P45452)            0.04
 7  O=C(NCCSc1ccc(S(=O)(=O)C2(C(=O)NO)CCOCC2)cc1)c1cc2ccccc2s1  Human recombinant MMP-13 (Homo sapiens, UniProt P45452)            1.08
 8  COC(=O)c1ccc(OCCOc2ccc(S(=O)(=O)C3(C(=O)NO)CCOCC3)cc2)cc1  Human recombinant MMP-13 (Homo sapiens, UniProt P45452)            0.05
 9  O=C(NO)C1(S(=O)(=O)c2ccc(OCCCc3cccc(-c4ccc(C(F)(F)F)cc4)c3)cc2)CCOCC1  Human recombinant MMP-13 (Homo sapiens, UniProt P45452)            1.53
10  O=C(CCCOc1ccc(S(=O)(=O)C2(C(=O)NO)CCOCC2)cc1)c1ccccc1  Human recombinant MMP-13 (Homo sapiens, UniProt P45452)           -0.15
11  O=C(NO)C1(S(=O)(=O)c2ccc(OCCOCc3cccc(F)c3)cc2)CCOCC1  Human recombinant MMP-13 (Homo sapiens, UniProt P45452)            0.56
12  O=C(Cc1csc2ccccc12)NCCOc1ccc(S(=O)(=O)C2(C(=O)NO)CCOCC2)cc1  Human recombinant MMP-13 (Homo sapiens, UniProt P45452)            0.43
13  Cn1c(C(=O)NCCOc2ccc(S(=O)(=O)C3(C(=O)NO)CCOCC3)cc2)cc2ccccc21  Human recombinant MMP-13 (Homo sapiens, UniProt P45452)            1.59
14  O=C(NO)C1(S(=O)(=O)c2ccc(OCCc3cccc(N4CCCCC4)c3)cc2)CCOCC1  Human recombinant MMP-13 (Homo sapiens, UniProt P45452)            0.58
15  COc1ccc(NC(=O)NCCCOc2ccc(S(=O)(=O)C3(C(=O)NO)CCOCC3)cc2)c(C)c1  Human recombinant MMP-13 (Homo sapiens, UniProt P45452)            1.17
16  Cc1ccc(-c2cccc(CCCOc3ccc(S(=O)(=O)C4(C(=O)NO)CCOCC4)cc3)c2)s1  Human recombinant MMP-13 (Homo sapiens, UniProt P45452)            0.63
17  O=C(Cc1ccc(-c2ccc(Cl)cc2)s1)NCCOc1ccc(S(=O)(=O)C2(C(=O)NO)CCOCC2)cc1  Human recombinant MMP-13 (Homo sapiens, UniProt P45452)            1.44
18  O=C(NO)C1(S(=O)(=O)c2ccc(OCCOCC3CC3)cc2)CCOCC1  Human recombinant MMP-13 (Homo sapiens, UniProt P45452)            1.45
19  O=C(NCCCOc1ccc(S(=O)(=O)C2(C(=O)NO)CCOCC2)cc1)N1CCOCC1  Human recombinant MMP-13 (Homo sapiens, UniProt P45452)            1.37
20  COc1ccc(CC(=O)NCCOc2ccc(S(=O)(=O)C3(C(=O)NO)CCOCC3)cc2)cc1  Human recombinant MMP-13 (Homo sapiens, UniProt P45452)            0.30
21  O=C(NO)C1(S(=O)(=O)c2ccc(OCCc3cccc(-c4cncnc4)c3)cc2)CCOCC1  Human recombinant MMP-13 (Homo sapiens, UniProt P45452)            0.76
22  O=C(Cc1nnn(Cc2ccccc2)n1)NCCOc1ccc(S(=O)(=O)C2(C(=O)NO)CCOCC2)cc1  Human recombinant MMP-13 (Homo sapiens, UniProt P45452)            0.20
23  CC(=O)c1cccc(CCCOc2ccc(S(=O)(=O)C3(C(=O)NO)CCOCC3)cc2)c1  Human recombinant MMP-13 (Homo sapiens, UniProt P45452)           -0.22
24  O=C(Cc1cccs1)NCCOc1ccc(S(=O)(=O)C2(C(=O)NO)CCOCC2)cc1  Human recombinant MMP-13 (Homo sapiens, UniProt P45452)           -0.22
25  O=C(NO)C1(S(=O)(=O)c2ccc(OCCCc3cccnc3)cc2)CCOCC1  Human recombinant MMP-13 (Homo sapiens, UniProt P45452)            0.30
26  COc1cc(CCCOc2ccc(S(=O)(=O)C3(C(=O)NO)CCOCC3)cc2)cc(OC)c1  Human recombinant MMP-13 (Homo sapiens, UniProt P45452)            0.60
